system: 415267-285-R-J2-PDC complex spheroid viability; experiment: Anticancer human tumor 415267-285-R-J2-PDC patient-derived breast carcinoma cell line growth inhibition [POLQ]; conditions: curve of first compound; second compound 0.0316 µM;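 also: spheroids exposed to compounds for one week before readout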
Quick list: IC50 per entry.
READOUT NAME: IC50 (nM)

- MOLECULE: "CC1COCCN1c1cc(C2(O)CC3CCC(C2)O3)c2cnn(-c3ccn[nH]3)c2n1 (stereo not given) + COC1C(OC(N)=O)C(O)C(Oc2ccc3c(O)c(NC(=O)c4ccc(O)c(CC=C(C)C)c4)c(=O)oc3c2C)OC1(C)C"
  READOUT NAME: "IC50"
  VALUE RELATION SIGN: "<"
  TEST VALUE: 31.6
- MOLECULE: "CC[C@@]1(O)C(=O)OCc2c1cc1n(c2=O)Cc2cc3c(CN(C)C)c(O)ccc3nc2-1 + Cc1cccc(N(C)C(=O)C2C(O)CCN2c2nc(C)cc(C(F)(F)F)c2C#N)c1"
  READOUT NAME: "IC50"
  VALUE RELATION SIGN: "="
  TEST VALUE: 19.8
- MOLECULE: "CC1COCCN1c1cc(C2(O)CC3CCC(C2)O3)c2cnn(-c3ccn[nH]3)c2n1 (stereo not given) + Nc1ccc(C#CCN(C(=O)Cc2ncc(C(F)(F)F)cc2C(F)(F)F)c2ccc(F)cc2)nn1"
  READOUT NAME: "IC50"
  VALUE RELATION SIGN: "<"
  TEST VALUE: 31.6
- MOLECULE: "O=C(Nc1ccc(O)c(NS(=O)(=O)c2ccc(F)cc2)c1)c1ccc(-c2ccccc2)cc1 + COC1C(OC(N)=O)C(O)C(Oc2ccc3c(O)c(NC(=O)c4ccc(O)c(CC=C(C)C)c4)c(=O)oc3c2C)OC1(C)C"
  READOUT NAME: "IC50"
  VALUE RELATION SIGN: "="
  TEST VALUE: 8510
- MOLECULE: "CC(=O)O[C@H]1C(=O)[C@@]2(C)[C@H]([C@H](OC(=O)c3ccccc3)[C@]3(O)C[C@H](OC(=O)[C@H](O)[C@@H](NC(=O)c4ccccc4)c4ccccc4)C(C)=C1C3(C)C)[C@]1(OC(C)=O)CO[C@@H]1C[C@@H]2O + COC1C(OC(N)=O)C(O)C(Oc2ccc3c(O)c(NC(=O)c4ccc(O)c(CC=C(C)C)c4)c(=O)oc3c2C)OC1(C)C"
  READOUT NAME: "IC50"
  VALUE RELATION SIGN: "<"
  TEST VALUE: 9.49
- MOLECULE: "COc1cccc2c1C(=O)c1c(O)c3c(c(O)c1C2=O)CC(O)(C(=O)CO)CC3OC1CC(N)C(O)C(C)O1 (stereo not given) + Nc1ccc(C#CCN(C(=O)Cc2ncc(C(F)(F)F)cc2C(F)(F)F)c2ccc(F)cc2)nn1"
  READOUT NAME: "IC50"
  VALUE RELATION SIGN: "="
  TEST VALUE: 55.7
- MOLECULE: "CCc1c2c(nc3ccc(O)cc13)-c1cc3c(c(=O)n1C2)COC(=O)[C@]3(O)CC + Nc1ccc(C#CCN(C(=O)Cc2ncc(C(F)(F)F)cc2C(F)(F)F)c2ccc(F)cc2)nn1"
  READOUT NAME: "IC50"
  VALUE RELATION SIGN: "="
  TEST VALUE: 3.71
- MOLECULE: "C=CC(=O)N1CCN(c2nc(=O)n(-c3c(C)ccnc3C(C)C)c3nc(-c4c(O)cccc4F)c(F)cc23)C(C)C1 (stereo not given) + COC1C(OC(N)=O)C(O)C(Oc2ccc3c(O)c(NC(=O)c4ccc(O)c(CC=C(C)C)c4)c(=O)oc3c2C)OC1(C)C"
  READOUT NAME: "IC50"
  VALUE RELATION SIGN: ">"
  TEST VALUE: 10000
- MOLECULE: "C#Cc1c(F)ccc2cc(O)cc(-c3ncc4c(N5CC6CCC(C5)N6)nc(OCC56CCCN5CC(F)C6)nc4c3F)c12 (stereo not given) + Cc1cccc(N(C)C(=O)C2C(O)CCN2c2nc(C)cc(C(F)(F)F)c2C#N)c1"
  READOUT NAME: "IC50"
  VALUE RELATION SIGN: ">"
  TEST VALUE: 10000
- MOLECULE: "CC1COCCN1c1cc(C2(S(C)(=N)=O)CC2)nc(-c2ccnc3[nH]ccc23)n1 (stereo not given) + COC1C(OC(N)=O)C(O)C(Oc2ccc3c(O)c(NC(=O)c4ccc(O)c(CC=C(C)C)c4)c(=O)oc3c2C)OC1(C)C"
  READOUT NAME: "IC50"
  VALUE RELATION SIGN: "="
  TEST VALUE: 463

The reported numbers originate from PubChem BioAssay AID1963847.
